procedure.summary: Drug repurposing screens with cells derived from glioblastoma tumor samples (AID 1345199); also: % is scaled to controls: 0 for no effect and ±100 for the full control effect; nearly all actives have a fitted effect of over 40% in size
assay.context: GBM patient neurospheres viability, ATP luminescence, 48 h; at 46.1 µM (top of the series); tumour line C
Inconclusive results are not listed. The source made the active and inactive calls. Calls follow the shape of the dose curve; as a rule, active = well fitted inhibition curve with a large enough effect; inconclusive = small, poorly fitted or top-dose-only effect; inactive = flat fitted curve, though single readings scatter.
Listing of entries alongside the reported activity, negative = cell killing.

Here is how some molecules turned out for activity, negative = cell killing.
O=C(O)c1[nH]n(-c2ccc(S(=O)(=O)O)cc2)c(=O)c1N=Nc1ccc(S(=O)(=O)O)cc1 :: -16.3% (inactive)
O=C(O)[C@@H](O)[C@H](O)[C@H](O)[C@@H](O)C(=O)O :: -6.4% (inactive)
O=C(NN1CCCC1)NS(=O)(=O)c1ccc(Cl)cc1 :: 2.27% (inactive)
O=C(O)CNC(=O)CNC(=O)CNC(=O)CSC(=O)c1ccccc1 :: -10.1% (inactive)

Pending molecule:
Ask | Name the reported activity, negative = cell killing value associated with the molecule C[C@H](CN1CCCC1)C(=O)c1ccc(C(F)(F)F)cc1
Reply | -22.1% (inactive)
